biological target: Sa.ClpP (Staphylococcus aureus, UniProt Q2G036); construct: Strep-tag (C); assay: Dose-response of beta-casein degradation by Sa.ClpP; settings: two-fold dilution series in DMSO, highest concentration 200 µM, densitometry, non-linear fit; three independent experiments; Fig. 4B; read-out: EC50 (effective dose), Sa.ClpP-dependent digestion of beta-casein
Sequence (Q2G036 whole entry): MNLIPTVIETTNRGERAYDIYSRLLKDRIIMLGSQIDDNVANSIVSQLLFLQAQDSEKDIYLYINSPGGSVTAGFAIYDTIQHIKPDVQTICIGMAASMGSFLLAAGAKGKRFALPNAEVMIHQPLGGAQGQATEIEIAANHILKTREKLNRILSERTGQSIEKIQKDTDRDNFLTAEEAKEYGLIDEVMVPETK
pEC50: −log10 of the molar value.
assay endpoint: pEC50

Query: pEC50; subject: `CC[C@H](C)[C@@H]1NC(=O)CNC(=O)[C@@H](NC(C)=O)CSCC(=O)CSC[C@@H](C(N)=O)NC(=O)CNC(=O)[C@H](Cc2ccccc2)NC(=O)CNC1=O`
< 4.00

====

assay: two-component Cys/Cys stapling: bis-thioether alkylation with 1,3-dichloroacetone (B), 1.1 equiv; TCEP 1.1 equiv added if the peptide had oxidised; conditions: the molecule shown is the open-chain precursor; 26-membered ring; 100 mM phosphate buffer pH 7.4 with DMSO (peptide stock) and MeCN (staple stock); 2.7 mM; 22.0 °C; 2 steps
assay endpoint: ring closure, yield over several steps (%)
// units = %; emit number, no label

Query: ring closure, yield over several steps; subject: `CC[C@H](C)[C@H](NC(=O)CNC(=O)[C@H](CSCC(=O)CCl)NC(C)=O)C(=O)NCC(=O)N[C@@H](C)C(=O)NCC(=O)N[C@@H](CS)C(N)=O`
18.4

Input `CC[C@H](C)[C@H](NC(=O)CNC(=O)[C@H](CSCC(=O)CCl)NC(C)=O)C(=O)NCC(=O)N[C@@H](Cc1cc(F)cc(F)c1)C(=O)NCC(=O)N[C@@H](CS)C(N)=O`
43.3

Input `CC[C@H](C)[C@H](NC(=O)CNC(=O)[C@H](CSCC(=O)CCl)NC(C)=O)C(=O)NCC(=O)N[C@@H](Cc1ccccc1)C(=O)NCC(=O)N[C@@H](CS)C(N)=O`
27.3

Input `CC[C@H](C)[C@H](NC(=O)[C@H](CSCC(=O)CCl)NC(C)=O)C(=O)NCC(=O)N[C@@H](Cc1ccccc1)C(=O)NCC(=O)N[C@@H](C)C(=O)N[C@@H](CS)C(N)=O`
13.5

Input `CC[C@H](C)[C@H](NC(=O)CNC(=O)[C@H](CSCC(=O)CCl)NC(C)=O)C(=O)NCC(=O)N[C@H](Cc1ccccc1)C(=O)NCC(=O)N[C@@H](CS)C(N)=O`
46.6
